Assay Notes: self-splicing fitness, log relative to wild type (ln ratio); higher = more splicing; Tetrahymena group I intron in knt gene, E. coli kanamycin selection, DiMSum; sequences stand for … in CUCUCU…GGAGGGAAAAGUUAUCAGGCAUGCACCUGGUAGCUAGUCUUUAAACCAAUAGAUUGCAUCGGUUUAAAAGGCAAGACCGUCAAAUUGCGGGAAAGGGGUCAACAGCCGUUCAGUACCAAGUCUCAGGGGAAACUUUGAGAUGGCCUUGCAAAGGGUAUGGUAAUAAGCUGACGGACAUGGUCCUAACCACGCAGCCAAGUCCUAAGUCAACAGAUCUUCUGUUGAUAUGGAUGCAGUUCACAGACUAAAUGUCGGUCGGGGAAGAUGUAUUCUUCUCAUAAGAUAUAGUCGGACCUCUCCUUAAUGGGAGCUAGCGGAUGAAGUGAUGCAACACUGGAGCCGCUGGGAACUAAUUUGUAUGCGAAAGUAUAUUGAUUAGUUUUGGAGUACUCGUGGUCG;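 note: selection with 25 µg/mL kanamycin versus none on LB agar overnight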
Conditions Used: 37 °C
Quantity Kind: self-splicing fitness (ln)
Give the figure only, with no unit attached.

Some solved cases for reference:
CGACAGCAAUAUUACGCACG: -2.31
GACUAGCAAUAUUACGUGAU: -0.383
GACUAGCAAUAUUACGGAAU: -1.91
UAUAAGCAAUAUUACGCAUG: -0.154
CGAUAGCAAUAUUACGAGAA: -2.73
CCUGAGCAAUAUUACGGGCU: -2.3
UCUGAGCAAUAUUACGUAUA: -2.39
CGUAAGCAAUAUUACGUGAA: -1.61

For reference, reported self-splicing fitness (ln) for CAUUAGCAAUAUUACGGCAG stands at -0.0776

For reference, reported self-splicing fitness (ln) for UGCUAGCAAUAUUACGAGUA stands at -0.447
